Would you kindly list protein stability index for each of these variants?
B1: INTS3 (parent)
chain: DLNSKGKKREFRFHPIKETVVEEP

variants of: B1; assay: protein stability index of a GFP-peptide fusion (GPS, HEK-293T) (PSI 1-6); higher = more stable; conditions: c terminus: a fixed tail appended;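 note: lentivirally expressed fusions sorted by FACS into six bins by GFP to DsRed ratio, PSI derived from sequencing read proportions per bin multiplied by bin number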

Completed entries (count: 8):
F13S; 4.27
S4H; 2.24
K17Y; 2
R12T; 4.28
P24E; 2.6
P15R; 2.9
S4V; 2.71
V21W; 1.64

Go through the items and report each one's protein stability index.
1. K8N
2. F13C
3. E10P
4. R12L
5. E22N
6. V20K

Result string:
[2.54, 3.94, 2.55, 3.57, 1.69, 2.16]

Go through the items and report each one's protein stability index.
1. P24H
2. E23K

Result string:
[2.36, 2.27]

Go through the items and report each one's protein stability index.
1. K5Y
2. H14E
3. G6Y
4. P15E
5. K8S

Result string:
2.26
4.13
1.95
3.2
2.23

Go through the items and report each one's protein stability index.
1. P15I
2. K5N
3. V20R
4. I16W
5. I16R
6. H14I
7. F13W

Result string:
1: 2.65; 2: 2.56; 3: 1.77; 4: 2.12; 5: 1.77; 6: 3.57; 7: 3.72
